Tgt: T1, Human CD137 ECD (human)
T1 construct: C-terminal His-tag and biotin acceptor peptide are in the entry; also called human CD137 extracellular domain; recombinant human CD137
Method summary: SPR Biacore T200, 37 C, Ab captured
Recorded Kd, one value per entry.
Quick note: give the figure in nM, leave out the unit.

## Task Give its Kd value. Item: H1573L0581 (antibody, V domains shown) VH: QVQLVESGGGLVQPGRSLRLSCAASGFKFSNVWFHWVRQAPGKGLEWVAQIKDYYNAYAAYYAPSVKGRFTISRDDSKNSIYLQMNSLKTEDTAVYYCHYVHYASASTLLPAFGVDAWGQGTTVTVSS VL: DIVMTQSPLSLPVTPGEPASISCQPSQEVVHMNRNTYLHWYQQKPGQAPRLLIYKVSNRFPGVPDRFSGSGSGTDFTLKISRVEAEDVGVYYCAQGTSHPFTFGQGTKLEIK
## Result 70.6

## Task Give its Kd value. Item: H1647L0581 (antibody, V domains shown, also called H1647L0581 (CD137); Anti-CD137 variant) VH: QVQLVESGGGLVQPGRSLRLSCAASGFKFSNTWFHWVRQAPGKGLEWVAQIKDYYNDYAAYYAPSVKGRFTISRDDSKNSIYLQMNSLKTEDTAVYYCHYVHYASASTLLPAEGVDAWGQGTTVTVSS VL: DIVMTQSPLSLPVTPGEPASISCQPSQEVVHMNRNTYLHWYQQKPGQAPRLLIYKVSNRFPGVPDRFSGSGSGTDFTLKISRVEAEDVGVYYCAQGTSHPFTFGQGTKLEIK
## Result 60.5

## Task Give its Kd value. Item: H0888L0581 (antibody, V domains shown, Dual-Ig, captured by anti-human Fc; also called dBBDu183H0888/dBBDu072L0581) VH: QVQLVESGGGLVQPGRSLRLSCAASGFKFSNVWMHWVRQAPGKGLEWVAQIKDKWNAYAAYYAPSVKGRFTISRDDSKNSIYLQMNSLKTEDTAVYYCHYIHYASASTLLPAFGIDAWGQGTTVTVSS VL: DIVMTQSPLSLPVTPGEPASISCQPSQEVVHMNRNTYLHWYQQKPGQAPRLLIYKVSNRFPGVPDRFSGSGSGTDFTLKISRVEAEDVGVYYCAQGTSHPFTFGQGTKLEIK
## Result 208

## Task Give its Kd value. Item: H1571L0581 (antibody, V domains shown) VH: QVQLVESGGGLVQPGRSLRLSCAASGFKFSNVWFHWVRQAPGKGLEWVAQIKDKYNAYATYYAPSVKGRFTISRDDSKNSIYLQMNSLKTEDTAVYYCHYVHYASASTLLPAFGVDAWGQGTTVTVSS VL: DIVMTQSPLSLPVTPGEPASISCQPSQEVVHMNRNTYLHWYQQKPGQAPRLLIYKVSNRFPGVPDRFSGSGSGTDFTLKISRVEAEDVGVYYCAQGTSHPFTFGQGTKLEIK
## Result 85

## Task Give its Kd value. Item: H0868L0581 (antibody, V domains shown) VH: QVQLVESGGGLVQPGRSLRLSCAASGFKFSNVWMHWVRQAPGKGLEWVAQIKDKYNAYAAYYAPSVKGRFTISRDDSKNSIYLQMNSLKTEDTAVYYCHYVHYASASTLLPAFGVDAWGQGTTVTVSS VL: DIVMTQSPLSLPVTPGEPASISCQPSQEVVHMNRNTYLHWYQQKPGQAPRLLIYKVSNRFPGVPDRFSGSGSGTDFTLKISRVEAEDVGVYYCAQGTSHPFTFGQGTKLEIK
## Result 108
